# Test Protocol: CellTiter-Glo cell viability
# Assay type: cell-based
# Condition Summary: human, p53_construct WT; Compound_conc 0.195312; CTG 4 days; read-out: mean (normalized viability)
# Method: Cells were plated in 384-well plates (typically 1,500 cells per well) with varying concentrations of compounds, with a total volume of 50 μl per well. CTG reagent was added (25 μl) to the solutions, mixed and read out using an EnVision 2105 multimode plate reader.
Measurement Type: viability at 4 days (%)
Numbers only, in %.

Notebook: CC[C@@H]1C(=O)N(C)c2cnc(Nc3ccc(C(=O)NC4CCN(C)CC4)cc3OC)nc2N1C1CCCC1 , viability at 4 days read as 98.9

* * *

# Test Protocol: CellTiter-Glo cell viability
# Format: cell-based
# Condition Summary: human, Huh7 cells, Concentration 20000, 4 day, read-out: mean_norm (normalized viability)
Measurement Type: viability at 4 day (%)
Numbers only, in %.

Notebook: CC[C@@H]1C(=O)N(C)c2cnc(Nc3ccc(C(=O)NCCOCCOCCOCCOCCC(=O)N4CCC(Nc5cccc6c5cc(C#CCNc5ccc(S(C)(=O)=O)cc5OC)n6CC(F)(F)F)CC4)cc3OC)nc2N1C1CCCC1 , viability at 4 day read as 83.1

* * *

# Test Protocol: CellTiter-Glo cell viability
# Type: cell-based
# Condition Summary: human, p53_construct WT; Compound_conc 0.78125; CTG 4 days; read-out: mean (normalized viability)
# Protocol: Cells were plated in 384-well plates (typically 1,500 cells per well) with varying concentrations of compounds, with a total volume of 50 μl per well. CTG reagent was added (25 μl) to the solutions, mixed and read out using an EnVision 2105 multimode plate reader.
Measurement Type: viability at 4 days (%)
Give bare numbers, in %.

Notebook: CC[C@@H]1C(=O)N(C)c2cnc(Nc3ccc(C(=O)NC4CCN(C)CC4)cc3OC)nc2N1C1CCCC1 [BI2536] , viability at 4 days read as 103

* * *

# Test Protocol: viability with doxycycline-inducible construct
# Format: cell-based
# Condition Summary: human, dox 100; Concentration 0.078125; read-out: mean_norm (normalized viability)
# Experimental: Cells were plated in 384-well plates (typically 1,500 cells per well) with varying concentrations of compounds, with a total volume of 50 μl per well. CTG reagent was added (25 μl) to the solutions, mixed and read out using an EnVision 2105 multimode plate reader.
Measurement Type: viability (%)
Numbers only, in %.

Notebook: CC[C@@H]1C(=O)N(C)c2cnc(Nc3ccc(C(=O)NC4CCN(C)CC4)cc3OC)nc2N1C1CCCC1 , viability read as 86.5

* * *

# Test Protocol: CellTiter-Glo cell viability
# Type: cell-based
# Condition Summary: human, DU145 cells, Concentration 20000, 4 day, read-out: mean_norm (normalized viability)
Measurement Type: viability at 4 day
The reply should read as a number followed by its unit.

Notebook: CC[C@@H]1C(=O)N(C)c2cnc(Nc3ccc(C(=O)NCCOCCOCCOCCOCCC(=O)N4CCC(Nc5cccc6c5cc(C#CCNc5ccc(S(C)(=O)=O)cc5OC)n6CC(F)(F)F)CC4)cc3OC)nc2N1C1CCCC1 , viability at 4 day read as 76.4%

* * *

# Test Protocol: CellTiter-Glo cell viability
# Format: cell-based
# Condition Summary: human, Huh7 cells, Concentration 2500, 4 day, read-out: mean_norm (normalized viability)
Measurement Type: viability at 4 day (%)
Answers are plain numbers, in %.

Notebook: CC[C@@H]1C(=O)N(C)c2cnc(Nc3ccc(C(=O)NCCOCCOCCOCCOCCC(=O)N4CCC(Nc5cccc6c5cc(C#CCNc5ccc(S(C)(=O)=O)cc5OC)n6CC(F)(F)F)CC4)cc3OC)nc2N1C1CCCC1 [p53-01, PMV6-PEG4-BI2536] , viability at 4 day read as 107
